# assay target: T1, recombinant human TNFR2 antigen (Kangdai, batch number A100114U) (human, UniProt P20333 23-257)
# T1 construct: also called hTNFR2; TNFR2-FC (Shanghai Saijin Biopharmaceutical Co., Ltd., Qiangke, catalog number A100114U); not shown: Fc part of the bought TNFR2-FC
# T1 sequence (looked up): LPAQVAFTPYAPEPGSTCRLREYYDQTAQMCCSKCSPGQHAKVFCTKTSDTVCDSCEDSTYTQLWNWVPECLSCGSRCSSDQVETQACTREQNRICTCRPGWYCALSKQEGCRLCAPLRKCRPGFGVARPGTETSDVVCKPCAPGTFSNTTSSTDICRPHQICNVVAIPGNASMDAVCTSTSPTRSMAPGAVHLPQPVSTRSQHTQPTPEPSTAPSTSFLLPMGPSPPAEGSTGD
# test name: ELISA, coated recombinant human TNFR2
Form field: EC50 (one value per entry).
measurement label: EC50 (µg/mL)

binder	measured number
anti-human TNFR2 mouse monoclonal antibody 27F6 (antibody, V domains shown) VH: EVQLQQSGTVLARPGASVKMSCKTSGYTFTSYWMHWVKQRPGQGLEWIGTIYPGNSDTSYNQKFKGKAKLTAVTSASTAYMELNSLTNEDSAVFYCTRENLLLRSYFFDYWGQGTTLTVSS VL: DIVMTQSPASLAVSLGQRATISCKASQSVDYDGDSYLNWYQQKPGQPPKLLIYAASNLPSGIPARFSGSGSGTDFTLNIHPVEEEDAATYYCQQSNEDPRTFGGGTKLEIK	0.0366
anti-human TNFR2 mouse monoclonal antibody 18A2 (antibody, V domains shown, also called 18A12) VH: DVQLQESGPGLVKPSQSLSLTCSVTGYSITSGYYWNWIRQFPGNKLEWMGYISYDGSNNYNPSLKKRISITRDTSKNQFFLKLNSVTTEDTATYYCTGGSGTSWGQGTLVTVSA VL: DIVMTQSHKFMSTSVGDRVSITCKASQDVTTGIAWYQQKPGQSPKLLIYSASNRFTGVPDRFTGSGSGTDFTFTISSVQAEDLAVYFCQQHYSTPFTFGSGTKLEIQ	0.0465
anti-human TNFR2 mouse monoclonal antibody 16D2 (antibody, V domains shown) VH: EVQLQQSEPELVKPGASVKIPCKASGYTFTDYNMDWVKQSHGKSLEWIGDINPNNGVTIYNQKFKGKATLTVDKSSSTAYMELRSLTSEDTAVYYCVILEYFDYWGQGTTLTVSS VL: DIVMTQSTSSMSVSLGDTVSITCHASQGISSNIGWLQQKPGKSFKGLIYHGTKLEDGVPSRFSGSGSGADYSLTISSLESEDFADYYCVQYAQFPRTFGGGTKLEIK	0.0218
anti-human TNFR2 mouse monoclonal antibody 13F5 (antibody, V domains shown) VH: QVQLQQSGAELVRPGTSVKMSCKASGYTFTNYWIGWTKQRPGHGLEWIGDIFPGGDFTNYNEKFKGKATLTADKSSSTAYLQFSSLTSEDSAIYYCSRRRFTTIVAPGFDYWGQGTTLTVSS VL: QLVLTQSSSASFSLGASAKLTCTLSSQHSMYTIEWYQQQPLKPPKFVMELKKDGSHSTGDGIPDRFSGSSSGADRYLNISNIQPEDEAIYICGVGDTIKEQFVYVFGGGTEVTVL	0.0638
